Recorded % of WT kcat/KM by entry
Biological target: Factor X (FX), P00742
Sequence (P00742 whole entry, looked up): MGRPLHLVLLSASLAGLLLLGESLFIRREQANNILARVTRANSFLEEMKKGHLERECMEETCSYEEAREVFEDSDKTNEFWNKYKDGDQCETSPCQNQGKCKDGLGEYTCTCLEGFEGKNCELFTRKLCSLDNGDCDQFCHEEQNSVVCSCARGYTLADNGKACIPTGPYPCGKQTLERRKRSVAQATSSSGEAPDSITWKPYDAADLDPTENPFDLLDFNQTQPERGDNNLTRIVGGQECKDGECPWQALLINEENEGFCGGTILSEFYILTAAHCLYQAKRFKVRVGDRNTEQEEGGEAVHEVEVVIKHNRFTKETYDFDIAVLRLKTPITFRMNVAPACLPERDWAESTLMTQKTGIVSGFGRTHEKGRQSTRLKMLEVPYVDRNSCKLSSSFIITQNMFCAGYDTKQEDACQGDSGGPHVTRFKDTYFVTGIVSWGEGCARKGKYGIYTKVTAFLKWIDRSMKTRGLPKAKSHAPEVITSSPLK
Numbers only; they are read as %.

FIXa-D85N/K228N/R318Y/R338E/R403E/E410N (protein) chain 1: YNSGKLEEFVQGNLERECMEEKCSFEEAREVFENTERTTEFWKQYVDGDQCESNPCLNGGSCKDDINSYECWCPFGFEGKNCELNVTCNIKNGRCEQFCKNSADNKVVCSCTEGYRLAENQKSCEPAVPFPCGRVSVSQTSKLTR chain 2: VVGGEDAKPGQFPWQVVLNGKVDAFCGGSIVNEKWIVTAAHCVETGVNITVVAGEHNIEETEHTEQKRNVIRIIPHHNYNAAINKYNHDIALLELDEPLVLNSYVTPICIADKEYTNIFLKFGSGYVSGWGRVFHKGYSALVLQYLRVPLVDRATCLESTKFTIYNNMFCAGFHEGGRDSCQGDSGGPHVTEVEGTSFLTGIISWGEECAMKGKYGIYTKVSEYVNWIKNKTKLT    336
FIXa-I251S/R318Y/R338E/R403E/E410N (protein) chain 1: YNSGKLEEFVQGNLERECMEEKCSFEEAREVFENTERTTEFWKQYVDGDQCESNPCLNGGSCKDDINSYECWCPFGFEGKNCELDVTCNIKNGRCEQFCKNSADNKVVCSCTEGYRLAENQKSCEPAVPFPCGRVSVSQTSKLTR chain 2: VVGGEDAKPGQFPWQVVLNGKVDAFCGGSIVNEKWIVTAAHCVETGVKITVVAGEHNIEETEHTEQKRNVSRIIPHHNYNAAINKYNHDIALLELDEPLVLNSYVTPICIADKEYTNIFLKFGSGYVSGWGRVFHKGYSALVLQYLRVPLVDRATCLESTKFTIYNNMFCAGFHEGGRDSCQGDSGGPHVTEVEGTSFLTGIISWGEECAMKGKYGIYTKVSEYVNWIKNKTKLT    334
FIXa-Y155F/K247N/N249S/R318Y/T343R/R403E (protein) chain 1: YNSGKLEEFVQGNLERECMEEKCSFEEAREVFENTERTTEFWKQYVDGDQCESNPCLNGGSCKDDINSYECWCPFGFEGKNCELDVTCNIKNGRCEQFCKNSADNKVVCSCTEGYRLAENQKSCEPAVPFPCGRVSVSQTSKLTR chain 2: VVGGEDAKPGQFPWQVVLNGKVDAFCGGSIVNEKWIVTAAHCVETGVKITVVAGEHNIEETEHTEQNRSVIRIIPHHNYNAAINKYNHDIALLELDEPLVLNSYVTPICIADKEYTNIFLKFGSGYVSGWGRVFHKGYSALVLQYLRVPLVDRATCLRSTKFRIYNNMFCAGFHEGGRDSCQGDSGGPHVTEVEGTSFLTGIISWGEECAMKGKYGIYTKVSEYVNWIKEKTKLT    276

// switching to the query protein
Ask: For FIXa-K247N/N249S/R318Y/T343R/E410N (protein) chain 1: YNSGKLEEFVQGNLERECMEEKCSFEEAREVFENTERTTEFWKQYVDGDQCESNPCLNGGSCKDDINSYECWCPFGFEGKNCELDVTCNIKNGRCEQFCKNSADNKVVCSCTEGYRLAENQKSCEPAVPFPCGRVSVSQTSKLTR chain 2: VVGGEDAKPGQFPWQVVLNGKVDAFCGGSIVNEKWIVTAAHCVETGVKITVVAGEHNIEETEHTEQNRSVIRIIPHHNYNAAINKYNHDIALLELDEPLVLNSYVTPICIADKEYTNIFLKFGSGYVSGWGRVFHKGYSALVLQYLRVPLVDRATCLRSTKFRIYNNMFCAGFHEGGRDSCQGDSGGPHVTEVEGTSFLTGIISWGEECAMKGKYGIYTKVSRYVNWIKNKTKLT , what is its reported % of WT kcat/KM?
Reply: 439
